FYI, the data here is from patent US20260152527A1.

assay: In vivo topical administration pharmacokinetics of K173, rabbit (aqueous humor, cornea); details: aqueous humor, topical or ocular, 5 mg/ml, Group 1 (single dose), topical 5 mg/ml, 8 hr post-last dose, OS, Mean, read-out: K173 Concentrations (ng/mL) in Rabbit Aqueous Humor OS Sample, Mean
Positions of bridges follow the written chain, without caps; N, C: chain ends. Non-standard residues stand in square brackets, D forms with d. Residues, ends and D or L forms follow the SMILES beside them. Triazole bridges read from a SMILES are 1,4-linked. *: point of attachment. Benzoyl(3,5-(OH)2) = O=C(c1cc(O)cc(O)c1)*; Lys(N3) = [N-]=[N+]=NCCCC[C@H](N)C(=O)O; dPhe(4-F) = N[C@H](Cc1ccc(F)cc1)C(=O)O; Nle = CCCC[C@H](N)C(=O)O; Pra = C#CC[C@H](N)C(=O)O
measure_name: level at 8 h (ng/mL)
Answer with a number only, understood to be in ng/mL.

Q: Query level at 8 h for CCCC[C@H](NC(=O)c1cc(O)cc(O)c1)C(=O)N[C@H]1CCCCn2cc(nn2)C[C@@H](C(N)=O)NC(=O)[C@H](Cc2c[nH]c3ccccc23)NC(=O)[C@H](CCCNC(=N)N)NC(=O)[C@@H](Cc2ccc(F)cc2)NC(=O)[C@H](Cc2c[nH]cn2)NC1=O [KR-072] ({Benzoyl(3,5-(OH)2)}-[Nle][Lys(N3)]H[dPhe(4-F)]RW[Pra]-NH2; triazole 2-7)
A: 4.2
